Target: T1, recombinant human IL-12 (human, UniProt P29459 23-219; P29460 23-328)
T1 sequence (looked up) 1: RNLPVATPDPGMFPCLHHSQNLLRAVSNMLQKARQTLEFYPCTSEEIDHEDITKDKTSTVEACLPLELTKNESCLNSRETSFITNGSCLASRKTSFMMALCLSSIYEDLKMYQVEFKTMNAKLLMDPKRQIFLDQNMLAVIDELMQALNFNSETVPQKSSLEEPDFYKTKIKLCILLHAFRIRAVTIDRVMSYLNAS
T1 sequence (looked up) 2: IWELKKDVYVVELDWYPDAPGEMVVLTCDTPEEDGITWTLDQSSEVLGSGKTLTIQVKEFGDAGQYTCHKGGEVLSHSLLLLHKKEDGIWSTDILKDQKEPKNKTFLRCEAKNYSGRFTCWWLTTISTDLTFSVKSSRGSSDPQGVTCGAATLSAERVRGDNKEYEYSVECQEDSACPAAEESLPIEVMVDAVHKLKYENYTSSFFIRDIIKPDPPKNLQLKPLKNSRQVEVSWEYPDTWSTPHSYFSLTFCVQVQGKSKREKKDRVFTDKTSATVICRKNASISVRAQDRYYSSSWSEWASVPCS
Test: cell-based or functional assay
property: IC50, PHA blast proliferation, 1 pM hIL-12
Answer format: number, then unit.

• P23IL-22E11 (VHH) VHH: EVQLVESGGGLVQAGGSLRLSCAASGRTFSWSAVGWFRQAPGKEREFVAAIRWSGGSPYYADSVKDRFTISRDNAKNTVYLQMNSLRPEDTAVYLCGETSLFPTSRGSHYDTWGQGTQVTVSS = 159 pM
• P23IL-23H3 (VHH, p40+ Nanobody) VHH: EVQLVESGGGLVQAGDSLRLSCAASGRSFSNDAMGWFRQAPGKERSFVAAINWSGELTGYAGSVKGRFTISRDGVENMVFLQMNSLVPEDTGVYYCAAVEGRDYYRGAQYYDYWGQGTQVTVSS = 174 pM
• P23IL3G10 (VHH, p40+ Nanobody; c-myc, His6-tagged) VHH: EVQLVESGGGVVQAGESLRLSCAASGYNVKDYEMGWFRQAPGMEREFAAAISWRGSSTYYADSVKGRFTISRDNAKNTVYLQMSSLKPEDTAVYYCAAGRLYPSSRSRDYDYWGQGTQVTVSS = 194 pM

Query :: Would you kindly share the measured IC50, PHA blast proliferation, 1 pM hIL-12 for P23IL-22D7 (VHH, p40+ Nanobody) VHH: EVQLVESGGGLVQAGGSLRLSCASSGRTFSIYARGWFRQAPGKEREFVAAIRSGLTTYSDSVKGRFTISRDIAKNTVFLQMNSLKSEDTAVYYCAAAVNYFTDFTDYSKRDSYDYWGQGTQVTVSS ?
Result :: 116 pM
